- Test Name: qHTS RealTime-Glo MT Cell Viability Assay in HEK293 cells - 24 hour (AID 1224886); note: nearly all actives have a fitted effect of over 50% in size
- Condition Details: RealTime-Glo luminescence; series mostly up to 76.8 µM
Results filed as inconclusive are left out. Activity calls are given as the source filed them. Calls come from the whole dose curve; as a rule, active = well fitted cell-killing curve with a large enough effect in the repeat runs; inconclusive = weak or mixed curves, or effect the other way; inactive = flat fitted curve, though single readings scatter.
Log the outcome using a class from 1 (active), 0 (inactive)

Structure Notation	Category
O=C(c1ccc(F)cc1)C1CCN(CCn2c(=O)[nH]c3ccccc3c2=O)CC1	1
CN(C)[C@@H]1C(=O)C(C(N)=O)=C(O)[C@@]2(O)C(=O)C3=C(O)c4c(O)cccc4C[C@H]3C[C@@H]12	0
CCN(Cc1cccnc1)C(=O)c1cccc(Cl)c1[C@]1(C)C(=O)N(Cc2ccc(OC)cc2OC)c2ccc(Cl)cc21	1
COc1ccc(C(=O)/C(Br)=C\C(=O)O)cc1	1

# input What classification did C/C=C1/C(=O)C[C@H]2[C@@H]3CCC4=CC(=O)CC[C@]4(C)[C@H]3CC[C@]12C end up with in this test?
# output 1

---

- Test Name: qHTS assay to identify small molecule agonists of the vitamin D receptor (VDR) signaling pathway - cell viability counter screen (AID 743224); note: nearly all actives have a fitted effect of over 50% in size
- Condition Details: VDR-bla HEK293T viability, CellTiter-Glo luminescence, 16 h; series mostly up to 62.6 µM
- Source text: U.S. Tox21 Program National Center for Advancing Translational Sciences [NCATS] NIH Chemical Genomics Center [NCGC] U.S. Environmental Protection Agency [EPA] National Institutes of Environmental Health Sciences [NIEHS] National Toxicology Program [NTP] U.S. Food and Drug Administration [FDA] Tox21 Assay Overview: The vitamin D receptor (VDR), a member of nuclear hormone receptor superfamily, plays a critical role in calcium homeostasis and bone metabolism. […]
Results filed as inconclusive are left out. Active and inactive are the calls of the source. Calls follow the shape of the dose curve; as a rule, active = well fitted cell-killing curve with a large enough effect in the repeat runs; inconclusive = weak or mixed curves, or effect the other way; inactive = no such curve, though single readings can be large or run the other way.
Log the outcome using a class from 1 = active, 0 = inactive

Some solved entries appear below for comparison.
Compound	Category
CCCCCCCC[N+](CCCCCCCC)(CCCCCCCC)CCCCCCCC	1
NC(=O)N1C(=O)C(C(=O)c2cc(Cl)cs2)c2cc(F)c(Cl)cc21 (stereo unspecified)	1
CCN(CC)CCNC(=O)c1c(C)[nH]c(/C=C2\C(=O)Nc3ccc(F)cc32)c1C	1
C/C=C1/C(=O)C[C@H]2[C@@H]3CCC4=CC(=O)CC[C@]4(C)[C@H]3CC[C@]12C	0
Cc1cc(O)c(C(C)(C)C)cc1Sc1cc(C(C)(C)C)c(O)cc1C	1
O=C(OCC(COC(=O)c1ccccc1)(COC(=O)c1ccccc1)COC(=O)c1ccccc1)c1ccccc1	0
Cc1cc(N)c(S(=O)(=O)O)cc1Cl	0
CO[Si](CCCNc1ccccc1)(OC)OC	0

Shifting focus to the compound that follows.
# input What classification did O=Cc1cc(O)ccc1Br end up with in this test?
# output 0

---

- Test Name: qHTS assay to identify small molecule agonists of the androgen receptor (AR) signaling pathway in the presence of an antagonist - cell viability counter screen (AID 1259379); note: nearly all actives have a fitted effect of over 25% in size
- Condition Details: MDA-kb2 viability, CellTiter-Fluor, 16 h; series mostly up to 92.4 µM
Records with an inconclusive call do not appear. Active and inactive are the calls of the source. Calls follow the shape of the dose curve; as a rule, active = well fitted cell-killing curve with a large enough effect in the repeat runs; inconclusive = weak or mixed curves, or effect the other way; inactive = flat fitted curve, though single readings scatter.
Log the outcome using a class from active, inactive

Molecule	Category
CN(C)C(=O)C1(N2CCCCC2)CCN(CC[C@@]2(c3ccc(Cl)c(Cl)c3)CN(C(=O)c3ccccc3)CCO2)CC1	active
CC(=O)OCC(C)OC(C)=O (stereo not drawn)	inactive
Cc1cccc(S(=O)(=O)O)c1C	inactive
CCN1/C(=C/C=C/c2sc3ccccc3[n+]2CC)Sc2ccccc21	active

# input What classification did O=S1(=O)CC(Cl)(Cl)C(Cl)(Cl)C1 end up with in this test?
# output active

# input What classification did CN(C)CCCOC1(Cc2ccccc2)CCCCCC1 end up with in this test?
# output inactive

# input What classification did Cc1onc(-c2ccccc2Cl)c1C(=O)N[C@@H]1C(=O)N2[C@@H]1SC(C)(C)[C@@H]2C(=O)O end up with in this test?
# output inactive

# input What classification did CCCC1O[C@@H]2C[C@H]3[C@@H]4CCC5=CC(=O)C=C[C@]5(C)[C@H]4[C@@H](O)C[C@]3(C)[C@]2(C(=O)CO)O1 (stereo partly drawn) end up with in this test?
# output inactive

# input What classification did O=C(c1ccc(O)cc1O)c1ccc(O)cc1O end up with in this test?
# output inactive

# input What classification did CCCC(C)c1ccccc1O (stereo not drawn) end up with in this test?
# output inactive
